Molecular target: Calmodulin-1 (Homo sapiens) (UniProt P0DP23)
Assay: small molecules binding Ca-loaded calmodulin-1 – biochemical, small-molecule microarray, Cy5-labelled CALM1, plus calcium, artefact control for SMM control-protein annotation, profiling panel (AID 1112);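 also: score merges spot fluorescence with signal to noise from triplicate slides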
Details: Cy5-CALM1 binding fluorescence, higher = more signal
recorded endpoint: composite z-score
Number, no unit, nothing else.

[in] Return reported composite z-score. Input molecule: OCCCc1cc[n+](Cc2cccc(OC(F)(F)F)c2)cc1
[out] 0.56

[in] Please indicate composite z-score recorded for Cc1ccc(S[C@]2(C(=O)NCCCN(C)C)CC(=O)N(Cc3ccccc3)[C@@H]2c2ccc(CO)cc2)cc1
[out] -0.674

[in] Return the recorded composite z-score value; entry: COC(=O)[C@@]1(Cc2ccc(OC)cc2)[C@H]2c3cc(C(=O)N(C)C)n(CCSCCO)c3C[C@H]2CN1C(=O)c1ccccc1
[out] 0.954

[in] Provide composite z-score value for the following molecule: COCCOC(=O)N1C(=O)[C@@]2(c3cc(C#Cc4ccc(OC)cc4)ccc31)[C@H](C(N)=O)[C@H]1C(=O)O[C@H](c3ccccc3)[C@H](c3ccccc3)N1[C@@H]2c1ccc(O)cc1
[out] 0.247

[in] Consider the molecule NC(=O)NCC#Cc1ccc2c(c1)[C@]1(C(=O)N2)[C@H](c2ccccc2OCCO)N2[C@H](c3ccccc3)[C@H](c3ccccc3)OC(=O)[C@H]2[C@@H]1C(=O)N1CCCCCCC1 and give its recorded composite z-score.
[out] 1.55

[in] Give recorded composite z-score. O=c1cccc(-c2ccccc2)o1
[out] -0.108

[in] Note down composite z-score recorded for O=C1c2ccccc2[C@@]2(Cc3ccccc3N(Cc3ccccc3)C2=O)[C@H](c2ccc(CO)cc2)N1Cc1ccccc1C(F)(F)F
[out] -0.176

[in] Supply recorded composite z-score for COCCOC(=O)N1C(=O)[C@@]2(c3cc(C#CC4=CCCCC4)ccc31)[C@H](c1ccc(OCCO)cc1)N1[C@H](c3ccccc3)[C@H](c3ccccc3)OC(=O)[C@H]1[C@@H]2C(=O)Nc1nc2ccccc2s1 here.
[out] -0.386

[in] Please look at this molecule and report its composite z-score: C=CCC(OC(C)=O)[C@@H]1[C@@H](N(Cc2cc3ccccc3o2)C(=O)c2ccc(C)cc2)c2cc(OCCCO)ccc2N1C(=O)c1ccc(-c2ccccc2)cc1 (stereo partly drawn)
[out] 0.544

[in] Item C=CCOC(=O)[C@@H]1[C@H]2C(=O)O[C@H](c3ccccc3)[C@H](c3ccccc3)N2[C@H](c2ccc(OCCOC(=O)[C@H]3C[C@H]4C(=O)N[C@@H](CCCC[N+](C)(C)C)C(=O)N4[C@H]3c3cccc(OCCO)c3)cc2)[C@@]12C(=O)Nc1ccc(I)cc12 : provide composite z-score
[out] -0.0134

[in] Query composite z-score for CC(C)N1C(=O)c2ccccc2[C@](C)(C(=O)NCCCN(C)C)[C@@H]1c1ccc(CO)cc1
[out] -0.0609

[in] Consider the molecule [N-]=[N+]=Nc1ccccc1C[C@]1(C(=O)N2CCCCC2)N=C(c2ccc(OCCCO)cc2)O[C@H]1c1ccccc1N=[N+]=[N-] . State its measured composite z-score.
[out] 0.605

[in] Give reported composite z-score value for CCCCC(=C=CC[C@H](O)c1ccccc1OCCO)C[C@H](O)c1cc(Cl)cc(Cl)c1O
[out] 0.466

[in] Specify composite z-score for CCOC(=O)C=Cc1cccc(OC)c1O and stop.
[out] -0.551

[in] Give reported composite z-score value for O=C1OCCC/C=C\[C@H]2OC34C=CCN(Cn5nnc6ccccc65)C(=O)[C@H]3N(CCCO)C(=O)[C@@H]4C12 (stereo partly drawn)
[out] 0.458

[in] Give the value of composite z-score reported for the following: O=c1cccc(-c2cccc3ccccc23)o1
[out] 0.33

[in] Determine from records and report composite z-score for Cc1c(NC(=O)/C(C#N)=C/C=C/c2ccccc2)c(=O)n(-c2ccccc2)n1C
[out] -0.0357

[in] Answer with reported composite z-score of COc1ccccc1CN1C(=O)c2ccccc2[C@](Cc2ccccc2I)(C(=O)NC2CC2)[C@@H]1c1ccc(CO)cc1
[out] -0.265

[in] Determine from records and report composite z-score for O=C(NCCN1CCOCC1)[C@@H]1c2ccccc2C(=O)N(Cc2cc(F)cc(C(F)(F)F)c2)[C@H]1c1ccc(CO)cc1
[out] 0.0296

[in] Give composite z-score for O=C(NCC(O)CO)[C@@]1(Cc2ccccc2)N=C(c2ccc(OCCCO)cc2)O[C@H]1c1ccccc1 (stereo partly drawn)
[out] 1.36

[in] Determine from records and report composite z-score for CS(=O)(=O)CCOC(=O)C1=CC(c2ccc(CO)cc2)=CC(c2cccs2)N(Cc2cccc(OC(F)(F)F)c2)C=C1C(=O)OCCS(C)(=O)=O (stereo not drawn)
[out] 0.707

[in] Give me measured composite z-score, please, for this molecule: C=CCOC(=O)[C@H]1[C@@H]2C(=O)O[C@@H](c3ccccc3)[C@@H](c3ccccc3)N2[C@@H](c2ccc(OCCOC(=O)[C@H]3C[C@H]4C(=O)N[C@@H](CCCC[N+](C)(C)C)C(=O)N4[C@H]3c3ccc(O)cc3)cc2)[C@]12C(=O)Nc1ccccc12
[out] -0.687

[in] Item C/C=C/[C@H](CCn1cc([C@H](O)c2ccccc2)nn1)[Si](C)(C)c1ccc(OC)cc1 : provide composite z-score
[out] -1.41

[in] Please report composite z-score for the following molecule: Cc1ccc(N2C(=O)c3ccccc3[C@@H](C(=O)NCC(C)C)[C@@H]2c2ccc(CO)cc2)nc1
[out] -0.259

[in] Respond only with composite z-score recorded for C=C(C(=O)CC[C@@H](OC(C)=O)c1ccc(OCCO)cc1)C(C)C
[out] -0.908

[in] Given O=C1O[C@@H](c2ccccc2)[C@@H](c2ccccc2)N2[C@@H](c3ccc(O)cc3)[C@]3(C(=O)Nc4ccc(C#CCCO)cc43)[C@@H](C(=O)N3CCCCCCC3)[C@H]12 , respond with its composite z-score.
[out] 1.05

[in] Query composite z-score for [N-]=[N+]=Nc1ccccc1[C@H]1OC(c2ccc(OCCCO)cc2)=N[C@@]1(CCS(=O)(=O)c1ccccc1)C(=O)N1CCOCC1
[out] 1.24

[in] Output composite z-score of O=C1O[C@H](c2ccccc2)[C@H](c2ccccc2)N2[C@H]1[C@@H](C(=O)NC[C@H](O)c1ccccc1)[C@]1(C(=O)Nc3ccc(C#CC4(O)CCCCCC4)cc31)[C@H]2c1ccccc1OCCO
[out] 0.26
